Target: USP8 Rhod domain (Homo sapiens, UniProt P40818)
Construct: USP8 Rhod (174–317) (UniProt: P40818); GST (cleaved yes); made in house; host or cells: Escherichia coli BL21-Gold (DE3)
Sequence (P40818 174-317): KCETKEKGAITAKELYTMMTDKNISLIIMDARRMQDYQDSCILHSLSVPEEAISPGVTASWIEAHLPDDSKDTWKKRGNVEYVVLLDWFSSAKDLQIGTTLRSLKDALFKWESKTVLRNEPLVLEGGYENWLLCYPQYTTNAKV
Assay: SPOT array of predicted peptides from known interactors, USP8 Rhod domain
Format: binding
Details: Rhod-Peptide screening, SPOT array of predicted peptides; KIAA1614 positive control = 100
Excerpt: The results therefore support that the USP8 Rhod domain binds to two distinct types of motifs (Fig. 4A, B). We used the motifs to scan for matching motifs in previously reported interactors using the SLiMSearch algorithm (Supplementary Table S8 A). As there was no clear match for the TET3-type motif except from only one hit, we focused on the KIAA1614-type motif. […] Both TP63 and USP21 are previously reported USP8 substrates, and the interactions may potentially contribute to substrate targeting. […]
The entries below are paired with their reported Percentage (%) normalized to highest intensity and corrected for background.
Give your result in % as a bare value.

Past entries and their recorded results:
Sequence Chain: SLRRLGGFPGPPTLFS
Test Target: USP8 Rhod domain (Homo sapiens, UniProt P40818)
Endpoint Value: 39
//
Sequence Chain: SYAKRRRLAGPSGLA
Test Target: USP8 Rhod domain (Homo sapiens, UniProt P40818)
Endpoint Value: 7
//
Sequence Chain: ASQAVPTFLMATAAA
Test Target: USP8 Rhod domain (Homo sapiens, UniProt P40818)
Endpoint Value: -0.581

Lookup: Please give the measured Percentage (%) normalized to highest intensity and corrected for background for this sequence: MPSGSRLRLVELGLGL [Random KIAA1614 Negative control]
Found: 3.69

Lookup: Try this sequence too: `SPLGRPESLLQSNTL`
Found: -0.544

Lookup: Try this sequence too: `HEFSSPSHLLRTPSS`
Found: 45

Lookup: Try this sequence too: `PRPTAPKPLLPRREE`
Found: 0.0399

Lookup: Try this sequence too: `SLRSLPHQLLLQRLQ`
Found: 7
